# target: Peptide deformylase, mitochondrial (Homo sapiens) (UniProt Q9HBH1)
# Sequence (whole entry): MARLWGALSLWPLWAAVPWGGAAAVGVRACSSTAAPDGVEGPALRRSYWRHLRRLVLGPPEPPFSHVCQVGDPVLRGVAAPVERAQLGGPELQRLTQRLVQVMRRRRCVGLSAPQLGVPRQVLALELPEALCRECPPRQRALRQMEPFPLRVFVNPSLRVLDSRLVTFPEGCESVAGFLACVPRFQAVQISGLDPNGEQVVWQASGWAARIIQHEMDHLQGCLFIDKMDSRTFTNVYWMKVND
# assay-comment: Inhibition of human peptide deformylase at 100 uM after 1 hr by fluorescence polarization based competition assay
reported-endpoint: inhibition (%)
# unit: % | format: bare number

Before answering, review these 3 worked examples.
[
  {
    "compound": "COc1ccc(C(=O)c2coc3c2C(=O)C(=O)c2ccccc2-3)cc1OC",
    "reported-value": 0
  },
  {
    "compound": "COc1ccc(C(=O)c2coc3cc(Br)c(O)cc23)cc1",
    "reported-value": 0
  },
  {
    "compound": "COc1ccc(C(=O)c2coc3c(Cl)c(Cl)c(O)cc23)cc1",
    "reported-value": 13
  }
]

Exam item: Let me know recorded inhibition for COc1cc(C(=O)c2coc3c2C(=O)C(=O)C(Cl)=C3Cl)cc(OC)c1OC , thanks.
Marked response: 100

Exam item: Let me know recorded inhibition for COc1ccc(C(=O)c2coc3c(Cl)cc(O)c(Cl)c23)cc1 , thanks.
Marked response: 9

Exam item: Let me know recorded inhibition for COc1ccc(C(=O)c2coc3c(Br)c(Br)c(O)cc23)cc1OC , thanks.
Marked response: 0

----------
# target: Peptide deformylase, mitochondrial (Homo sapiens) (UniProt Q9HBH1)
# assay-comment: Inhibition of human peptide deformylase at 10 uM after 1 hr by fluorescence polarization based competition assay
reported-endpoint: inhibition (%)
# unit: % | format: bare number

[
  {
    "compound": "O=C1C(=O)c2c(C(=O)c3ccccc3)coc2C=C1Br",
    "target": "Peptide deformylase, mitochondrial (Homo sapiens) (UniProt Q9HBH1)",
    "inhibition, %": 97
  },
  {
    "compound": "Cc1ccc(C(=O)c2coc3c2C(=O)C(=O)C(Br)=C3)cc1",
    "target": "Peptide deformylase, mitochondrial (Homo sapiens) (UniProt Q9HBH1)",
    "inhibition, %": 81
  },
  {
    "compound": "CC(=O)C(C(C)=O)C1=C(Cl)C(=O)C(=O)c2c(C(=O)c3ccc(C)cc3)coc21",
    "target": "Peptide deformylase, mitochondrial (Homo sapiens) (UniProt Q9HBH1)",
    "inhibition, %": 75
  }
]

Moving on to the next molecule.
Exam item: Let me know recorded inhibition for COc1ccc(C(=O)c2coc3c2C(=O)C(=O)C(Br)=C3)cc1 , thanks.
Marked response: 90

----------
# target: Peptide deformylase, mitochondrial (Homo sapiens) (UniProt Q9HBH1)
# Sequence (whole entry): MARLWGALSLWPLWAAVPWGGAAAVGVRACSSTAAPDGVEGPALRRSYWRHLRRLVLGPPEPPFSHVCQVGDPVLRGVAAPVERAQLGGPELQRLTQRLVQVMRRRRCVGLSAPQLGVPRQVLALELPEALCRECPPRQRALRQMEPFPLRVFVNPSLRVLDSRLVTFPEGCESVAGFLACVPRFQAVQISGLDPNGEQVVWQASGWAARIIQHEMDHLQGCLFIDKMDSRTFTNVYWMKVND
# assay-comment: Inhibition of human peptide deformylase at 100 uM after 1 hr by fluorescence polarization based competition assay
Recorded measurements of inhibition, one per entry
Write your answer as a measured quantity: the number, then the unit.

[
  {
    "compound": "COc1ccc(C(=O)c2coc3c2C(=O)C(=O)C=C3Cl)cc1",
    "reported-value": "100%"
  }
]

Exam item: Find the measured inhibition of COc1cc(C(=O)c2coc3c2C(=O)C(=O)c2ccccc2-3)cc(OC)c1OC with Peptide deformylase, mitochondrial (Homo sapiens) (UniProt Q9HBH1) as test system.
Marked response: 5%

Exam item: Find the measured inhibition of O=C1C=Cc2occ(C(=O)c3ccccc3)c2C1=O with Peptide deformylase, mitochondrial (Homo sapiens) (UniProt Q9HBH1) as test system.
Marked response: 100%
